# tested system: Aleuria aurantia lectin (AAL) (Aleuria aurantia)
# Sequence (P18891 1-313): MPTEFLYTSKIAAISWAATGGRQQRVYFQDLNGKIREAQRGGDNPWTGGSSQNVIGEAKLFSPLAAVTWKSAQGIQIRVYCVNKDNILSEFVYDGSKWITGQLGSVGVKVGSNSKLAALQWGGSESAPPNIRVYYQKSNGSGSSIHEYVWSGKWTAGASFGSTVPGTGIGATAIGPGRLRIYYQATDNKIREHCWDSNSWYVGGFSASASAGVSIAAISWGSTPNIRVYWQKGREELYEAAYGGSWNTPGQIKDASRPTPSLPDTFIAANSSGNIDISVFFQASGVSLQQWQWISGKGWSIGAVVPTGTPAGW
# Format: cell-based
measured property: Inhibition of AAL binding to T84 cells (in words)

>>> df
                                   molecule           assay_value
0  OC1OC[C@@H](O)[C@@H](O)[C@@H]1O (stereo partly drawn) [D-arabinose, d-(−)-Arabinose]  effective inhibitors
1   C[C@@H](O)[C@@H](O)[C@H](O)[C@@H](O)C=O   virtually no effect
2   O=C[C@@H](O)[C@H](O)[C@H](O)[C@@H](O)CO  effective inhibitors
3  C[C@H]1OC(O)[C@H](O)[C@@H](O)[C@H]1O (stereo partly drawn) [D-fucose, d-(+)-Fucose]   virtually no effect

---

# tested system: cholera toxin subunit B (CTB) (Vibrio cholerae serotype O1)
# Format: cell-based
Counter-ions that a name gives are not always drawn.
measured property: Inhibition of CTB binding to T84 cells (in words)

molecule	assay value
CC(=O)N[C@H]1[C@H]([C@H](O)[C@H](O)CO)O[C@@](O[C@H]2[C@@H](O)[C@@H](CO)O[C@@H](O[C@H]3[C@H](O)[C@@H](O)C(O)O[C@@H]3CO)[C@@H]2O)(C(=O)O)C[C@@H]1O (stereo partly shown) [3′-SL, 3′-Sialyllactose sodium salt]	no inhibition
CC(=O)N[C@H]1[C@H]([C@H](O)[C@H](O)CO)O[C@@](OC[C@H]2O[C@@H](O[C@H]3[C@H](O)[C@@H](O)[C@H](O)O[C@@H]3CO)[C@H](O)[C@@H](O)[C@H]2O)(C(=O)O)C[C@@H]1O [6′-SL, 6′-Sialyllactose sodium salt]	no inhibition

---

# tested system: cholera toxin subunit B (CTB) (Vibrio cholerae serotype O1, UniProt P01556)
# assay details: cell-based
# Format: cell-based
measured property: Inhibition of CTB binding to Colo205 cells (in words)

molecule	assay value
C[C@@H](O)[C@@H](O)[C@H](O)[C@@H](O)C=O [6-deoxy-D-glucose]	only minor effects
C[C@H]1OC(O)[C@H](O)[C@@H](O)[C@H]1O (stereo partly drawn) [D-fucose, d-(+)-Fucose]	only minor effects

---

# tested system: cholera toxin subunit B (CTB) (Vibrio cholerae serotype O1)
# assay details: cell-based
# Type: cell-based
Structures can show the parent of a compound that is named as a salt.
measured property: Inhibition of CTB binding to Colo205 cells (in words)

compound	assay value
CC(=O)N[C@H]1[C@H]([C@H](O)[C@H](O)CO)O[C@@](OC[C@H]2O[C@@H](O[C@H]3[C@H](O)[C@@H](O)[C@H](O)O[C@@H]3CO)[C@H](O)[C@@H](O)[C@H]2O)(C(=O)O)C[C@@H]1O [6′-SL, 6′-Sialyllactose sodium salt]	no inhibition
CC(=O)N[C@H]1[C@H]([C@H](O)[C@H](O)CO)O[C@@](O[C@H]2[C@@H](O)[C@@H](CO)O[C@@H](O[C@H]3[C@H](O)[C@@H](O)C(O)O[C@@H]3CO)[C@@H]2O)(C(=O)O)C[C@@H]1O (stereo partly shown) [3′-SL, 3′-Sialyllactose sodium salt]	no inhibition

Recorded values, source paper PMC5948155.
